Every entry's value here was drawn from PubChem BioAssay (NCATS).

Measured activity change, negative = viability loss accompanies every entry in the list below.
experiment-description: Primary qHTS for inhibitors of nuclear receptor binding SET domain protein 2 (NSD2) in an isogenic RCH-ACV NSD2 p.E1099K mutant (9B) (AID 1645876); note: % is set by controls: 0 for no effect and ±100 for the full control effect; nearly all actives have a fitted effect of over 70% in size
condition: RCH-ACV (leukaemia line) NSD2 E1099K (9B) viability, CellTiter-Glo, 72 h; series mostly up to 44.9 µM
Results filed as inconclusive are left out. The source made the active and inactive calls. Calls come from the whole dose curve; as a rule, active = well fitted inhibition curve with a large enough effect; inconclusive = small, poorly fitted or top-dose-only effect; inactive = flat fitted curve, though single readings scatter.
measurement-name: activity change, negative = viability loss

compound	val
C[C@@H]1O[C@@H](O[C@H]2[C@H](O)[C@@H](O[C@@H]3O[C@H](CO)[C@@H](O)[C@H](O[C@@H]4O[C@H](CO)[C@@H](O)[C@H](O)[C@H]4O)[C@H]3O)[C@H](O[C@H]3CC[C@@]4(C)C(=CC[C@@H]5C4CC[C@@]4(C)C5C[C@@H]5OC6(CC[C@@](C)(CO[C@@H]7O[C@H](CO)[C@@H](O)[C@H](O)[C@H]7O)O6)[C@@H](C)[C@@H]54)C3)O[C@@H]2CO)[C@H](O)[C@H](O)[C@H]1O (some centres not stated)	-19.9% [at 9.23 µM] (inactive)
COC1CC(O[C@H]2CC[C@@]3(C)C(=CC[C@]4(O)C3[C@H](OC(C)=O)[C@@H](OC(=O)c3ccccc3)[C@]3(C)[C@@H](C(C)=O)CC[C@@]34O)C2)OC(C)C1OC1CC(OC)C(OC2CC(OC)C(OC3OC(C)C(OC4OC(CO)C(O)C(O)C4O)C(OC)C3O)C(C)O2)C(C)O1 (some centres not stated)	-11.2% [at 9.23 µM] (inactive)
